biological target: Bcl-2 protein (Recombinant Human Bcl-2 Protein) (Homo sapiens, UniProt P10415); construct: purchased Novus NBP2-34889; experiment: Binding evaluation of mixture library compounds to Bcl-2 using AS-MS (affinity selection mass spectrometry); details: AS-MS, mixture of 1200 compounds, Bcl-2; ASMS Ratio(%)=(A−C)/B×100; replicate n = 2
Sequence (P10415 whole entry): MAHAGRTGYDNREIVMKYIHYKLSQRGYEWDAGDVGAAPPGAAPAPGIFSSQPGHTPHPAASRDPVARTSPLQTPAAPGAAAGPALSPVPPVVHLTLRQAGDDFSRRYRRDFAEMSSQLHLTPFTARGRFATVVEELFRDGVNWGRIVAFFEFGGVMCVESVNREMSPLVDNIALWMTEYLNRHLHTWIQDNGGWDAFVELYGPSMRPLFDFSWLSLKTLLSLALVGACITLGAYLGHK
Measure: ASMS ratio (%) n = 2

[[record]]
molecule = "CCOc1cncc(-c2cc(CN3CCN(c4ccc(C(=O)NCC56CC7CC(CC(C7)C5)C6)cc4)CC3)cc(C(F)(F)F)c2)c1"
experimental_system = "Bcl-2 protein (Recombinant Human Bcl-2 Protein) (Homo sapiens, UniProt P10415)"
val = "−9.7%"

[[record]]
molecule = "CCOc1cncc(-c2ccc(C(=O)N3CCN(c4ccc(C(=O)NCC(F)(F)F)nn4)CC3)cc2C)c1"
experimental_system = "Bcl-2 protein (Recombinant Human Bcl-2 Protein) (Homo sapiens, UniProt P10415)"
val = "0.6%"

[[record]]
molecule = "CCOc1cccc(-c2cc(OC)c(CN3CCN(c4ccc(C(=O)NCC56CC7CC(CC(C7)C5)C6)cc4)CC3)c(OC)c2)c1"
experimental_system = "Bcl-2 protein (Recombinant Human Bcl-2 Protein) (Homo sapiens, UniProt P10415)"
val = "−5.5%"

[[record]]
molecule = "CCOc1cncc(C#Cc2ccccc2CN2CCN(c3ccc(C(=O)NCC(F)(F)F)nn3)CC2)c1"
experimental_system = "Bcl-2 protein (Recombinant Human Bcl-2 Protein) (Homo sapiens, UniProt P10415)"
val = "0.0%"

[[record]]
molecule = "CCOc1cccc(-c2ccc(C(C)N3CCN(c4ccc(C(=O)NCC(F)(F)F)cc4)CC3)cc2)c1 (stereo not shown)"
experimental_system = "Bcl-2 protein (Recombinant Human Bcl-2 Protein) (Homo sapiens, UniProt P10415)"
val = "−3.1%"

[[record]]
molecule = "CCOc1cccc(-c2cc(C(=O)N3CCN(c4ccc(C(=O)NCC(F)(F)F)nn4)CC3)cc(C(C)(C)C)c2)c1"
experimental_system = "Bcl-2 protein (Recombinant Human Bcl-2 Protein) (Homo sapiens, UniProt P10415)"
val = "−1.8%"

[[record]]
molecule = "CCOc1cccc(-c2ccc(CN3CCN(c4ccc(C(=O)NCC56CC7CC(CC(C7)C5)C6)nn4)CC3)cc2F)c1"
experimental_system = "Bcl-2 protein (Recombinant Human Bcl-2 Protein) (Homo sapiens, UniProt P10415)"
val = "−1.3%"


----------
target: Bcl-2 protein (Recombinant Human Bcl-2 Protein) (Homo sapiens); construct: purchased Novus NBP2-34889; experiment: Binding evaluation of mixture library compounds to Bcl-2 using AS-MS (affinity selection mass spectrometry); settings: n = 1
This section presents compounds with their documented ASMS ratio (%) values.
Measure: ASMS ratio (%)

[[record]]
line_notation = "CCOc1cccc(-c2cc(C(=O)N3CCN(c4ccc(C(=O)NS(=O)(=O)C(C)(C)C)nn4)CC3)cc(C(C)(C)C)c2)c1"
val = 0.0

[[record]]
line_notation = "CCOc1cncc(-c2ccc(CN3CCN(c4ccc(C(=O)NS(C)(=O)=O)cc4)CC3)cc2C)c1"
val = 0.0

[[record]]
line_notation = "CCOc1cncc(-c2ccc(CN3CCN(c4ccc(C(=O)NS(=O)(=O)CCC(F)(F)F)cc4)CC3)cc2F)c1"
val = 0.0

[[record]]
line_notation = "CCOc1cncc(-c2ccc(C(=O)N3CCN(c4ccc(C(=O)NS(=O)(=O)CCC(F)(F)F)cc4)CC3)cc2F)c1"
val = "−0.7"

[[record]]
line_notation = "CCOc1cccc(-c2ccc(CN3CCN(c4ccc(C(=O)NS(C)(=O)=O)cc4)CC3)c(OC)c2)c1"
val = 0.0

[[record]]
line_notation = "CCOc1cccc(-c2cc(CN3CCN(c4ccc(C(=O)NS(=O)(=O)c5ccc(NCCSc6ccccc6)c(C(F)(F)F)c5)cc4)CC3)cc(OCC)c2)c1"
val = "−3.3"

[[record]]
line_notation = "CCOc1cccc(-c2ccc(CN3CCN(c4ccc(C(=O)NS(=O)(=O)C(C)(C)C)cc4)CC3)cc2C)c1"
val = 0.0

[[record]]
line_notation = "CCOc1cncc(-c2ccc(CN3CCN(c4ccc(C(=O)NS(=O)(=O)CCC(F)(F)F)cc4)CC3)c(CC)c2)c1"
val = 0.0

[[record]]
line_notation = "CCOc1cccc(-c2ccc(C(=O)N3CCN(c4ccc(C(=O)NS(=O)(=O)c5ccc(NCCSc6ccccc6)c(C(F)(F)F)c5)cc4)CC3)c3ccccc23)c1"
val = 8.3

[[record]]
line_notation = "CCOc1cccc(-c2ccccc2CN2CCN(c3ccc(C(=O)NS(C)(=O)=O)cc3)CC2)c1"
val = "−0.3"

[[record]]
line_notation = "CCOc1cncc(C#Cc2ccccc2C(=O)N2CCN(c3ccc(C(=O)NS(=O)(=O)CCC(F)(F)F)cc3)CC2)c1"
val = 0.0

[[record]]
line_notation = "CCOc1cncc(-c2ccc(C(=O)N3CCN(c4ccc(C(=O)NS(=O)(=O)CCC(F)(F)F)nn4)CC3)cc2C)c1"
val = 1.2

[[record]]
line_notation = "CCOc1cccc(C#Cc2ccccc2C(=O)N2CCN(c3ccc(C(=O)NS(=O)(=O)C(C)(C)C)nn3)CC2)c1"
val = 0.0

[[record]]
line_notation = "CCOc1cccc(-c2ccc(CN3CCN(c4ccc(C(=O)NS(=O)(=O)CCC(F)(F)F)cc4)CC3)cc2C)c1"
val = 0.0


----------
This section presents molecules with their documented ASMS ratio (%) values.
target: Bcl-2 protein (Recombinant Human Bcl-2 Protein) (Homo sapiens); construct: purchased Novus NBP2-34889; experiment: Binding evaluation of mixture library compounds to Bcl-2 using AS-MS (affinity selection mass spectrometry); conditions: n = 1
Measure: ASMS ratio (%)

[[record]]
line_notation = "CCOc1cccc(C#Cc2cc(C(=O)N3CCN(c4ccc(C(=O)NS(=O)(=O)c5ccc(NCCSc6ccccc6)c(C(F)(F)F)c5)cc4)CC3)cc(C(F)(F)F)c2)c1"
experimental_system = "Bcl-2 protein (Recombinant Human Bcl-2 Protein) (Homo sapiens)"
val = 18.0

[[record]]
line_notation = "CCOc1cccc(C#Cc2cncc(C(=O)N3CCN(c4ccc(C(=O)NS(=O)(=O)c5ccc(NCCSc6ccccc6)c(C(F)(F)F)c5)nn4)CC3)c2)c1"
experimental_system = "Bcl-2 protein (Recombinant Human Bcl-2 Protein) (Homo sapiens)"
val = 0.0

[[record]]
line_notation = "CCOc1cccc(-c2ccc(CN3CCN(c4ccc(C(=O)NS(=O)(=O)CCC(F)(F)F)nn4)CC3)cc2F)c1"
experimental_system = "Bcl-2 protein (Recombinant Human Bcl-2 Protein) (Homo sapiens)"
val = 0.0


----------
This section presents compounds with their documented ASMS ratio (%) n = 2 values.
biological target: Bcl-2 protein (Recombinant Human Bcl-2 Protein) (Homo sapiens); construct: purchased Novus NBP2-34889; test: Binding evaluation of mixture library compounds to Bcl-2 using AS-MS (affinity selection mass spectrometry); settings: AS-MS, mixture of 1200 compounds, Bcl-2; ASMS Ratio(%)=(A−C)/B×100; replicate n = 2
Measure: ASMS ratio (%) n = 2

[[record]]
compound = "CCOc1cncc(-c2cc(CN3CCN(c4ccc(C(=O)NCC56CC7CC(CC(C7)C5)C6)cc4)CC3)cc(OCC)c2)c1"
val = "4.0%"

[[record]]
compound = "CCCNC(=O)c1ccc(N2CCN(Cc3ccc(-c4cncc(OCC)c4)cc3CC)CC2)cc1"
val = "46.1%"

[[record]]
compound = "CCOc1cccc(-c2cnn(-c3cc(C(=O)N4CCN(c5ccc(C(=O)NCC67CC8CC(CC(C8)C6)C7)cc5)CC4)cc(C(F)(F)F)c3)c2)c1"
val = "−2.9%"

[[record]]
compound = "CCOc1cncc(-c2ccc(C(=O)N3CCN(c4ccc(C(=O)NCC56CC7CC(CC(C7)C5)C6)nn4)CC3)cc2C)c1"
val = "2.6%"

[[record]]
compound = "CCOc1cncc(-c2ccc(C(C)N3CCN(c4ccc(C(=O)NCC(F)(F)F)cc4)CC3)cc2)c1 (centres unmarked)"
val = "−2.4%"

[[record]]
compound = "CCOc1cncc(-c2ccccc2CCC(=O)N2CCN(c3ccc(C(=O)NCC45CC6CC(CC(C6)C4)C5)nn3)CC2)c1"
val = "0.0%"

[[record]]
compound = "CCOc1cncc(-c2cc(OC)c(CN3CCN(c4ccc(C(=O)NCC56CC7CC(CC(C7)C5)C6)nn4)CC3)c(OC)c2)c1"
val = "−14.8%"

[[record]]
compound = "CCOc1cncc(-c2csc(C(=O)N3CCN(c4ccc(C(=O)NCC56CC7CC(CC(C7)C5)C6)cc4)CC3)c2)c1"
val = "1.2%"

[[record]]
compound = "CCOc1cccc(-c2ccccc2CN2CCN(c3ccc(C(=O)NCC45CC6CC(CC(C6)C4)C5)nn3)CC2)c1"
val = "−3.3%"

[[record]]
compound = "CCOc1cccc(C#Cc2ccccc2CN2CCN(c3ccc(C(=O)NCC45CC6CC(CC(C6)C4)C5)cc3)CC2)c1"
val = "0.8%"

[[record]]
compound = "CCOc1cccc(-c2ccc(CN3CCN(c4ccc(C(=O)NCC(F)(F)F)nn4)CC3)cc2F)c1"
val = "−0.2%"

[[record]]
compound = "CCOc1cccc(-c2ccc(C(C)N3CCN(c4ccc(C(=O)NCC(F)(F)F)cc4)CC3)c(F)c2)c1 (centres unmarked)"
val = "0.0%"

[[record]]
compound = "CCOc1cncc(-c2ccc(C(=O)N3CCN(c4ccc(C(=O)NCC(F)(F)F)cc4)CC3)cc2F)c1"
val = "0.0%"

[[record]]
compound = "CCOc1cncc(-c2ccc(CN3CCN(c4ccc(C(=O)NCC(F)(F)F)cc4)CC3)c(CC)c2)c1"
val = "0.0%"

